# Tested on: MOLT-4 leukemia
# METHOD SUMMARY: NCI tumour cell line growth inhibition, 48 h
This listing pairs molecules with measured TGI.

[
  {
    "MOLECULE": "C/C(N=Nc1nc2ccccc2s1)=C1/C=CC=CN1O",
    "TGI": "> 100 µM"
  },
  {
    "MOLECULE": "O=[N+]([O-])C(=C(N1CCCCC1)N1CCCCC1)/C(Cl)=C(\\Cl)Br",
    "TGI": "57.3 µM"
  },
  {
    "MOLECULE": "O=C(c1ccc(F)cc1)c1cccc(C(=O)c2ccc(F)cc2)n1",
    "TGI": "> 100 µM"
  },
  {
    "MOLECULE": "CCC(C(=O)O)c1ccc(OCc2ccccc2)cc1 (stereo unspecified)",
    "TGI": "> 100 µM"
  },
  {
    "MOLECULE": "COCOc1ccc(OC)cc1",
    "TGI": "> 100 µM"
  },
  {
    "MOLECULE": "CC(=O)NC(CCCNCc1ccccc1)C(=O)NCc1ccccc1 (stereo unspecified)",
    "TGI": "> 100 µM"
  },
  {
    "MOLECULE": "Nc1c2ccccc2nc2c1ccc1ncccc12",
    "TGI": "> 100 µM"
  },
  {
    "MOLECULE": "O=C1CCSSCCC(=O)NCCN1",
    "TGI": "> 100 µM"
  },
  {
    "MOLECULE": "C[C@@H](C(=O)Nc1ccc(Cl)cc1)C1CCC(c2ccnc3ccc(F)cc23)CC1 (stereo partly specified)",
    "TGI": "> 100 µM"
  },
  {
    "MOLECULE": "COc1ccc(-c2ccc(/C=N/n3c(COc4ccc(Cl)cc4Cl)n[nH]c3=S)o2)c([N+](=O)[O-])c1",
    "TGI": "38.9 µM"
  },
  {
    "MOLECULE": "CCN(CC)c1ccc(C(=C2C=CC(=[N+](CC)Cc3cccc(S(=O)(=O)O)c3)C=C2)c2ccc(N(CC)Cc3cccc(S(=O)(=O)O)c3)cc2)cc1",
    "TGI": "> 89.7 µM"
  }
]
